Below: a set of entries, each annotated with reported protein stability index.
B1: MYOZ1 (parent)
chain: FSDSSMDHFQKFLPTVGGQLGTAG

Variants of: B1
Assay: protein stability index of a GFP-peptide fusion (GPS, HEK-293T) (PSI 1-6); higher = more stable;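 also: lentivirally expressed fusions sorted by FACS into six bins by GFP to DsRed ratio, PSI derived from sequencing read proportions per bin multiplied by bin number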
Details: c terminus: a fixed tail appended
Give the figure by itself; no unit, no explanation.

Look over these answered cases.
sequenceChange	protein stability index
L13Y	2.76
F12A	3.98
P14L	4.1

With those in mind, consider the next variant.
Task: Would you mind telling me what protein stability index value was observed for `L20E` ?
Result: 3.51
